Protein target, amino acids: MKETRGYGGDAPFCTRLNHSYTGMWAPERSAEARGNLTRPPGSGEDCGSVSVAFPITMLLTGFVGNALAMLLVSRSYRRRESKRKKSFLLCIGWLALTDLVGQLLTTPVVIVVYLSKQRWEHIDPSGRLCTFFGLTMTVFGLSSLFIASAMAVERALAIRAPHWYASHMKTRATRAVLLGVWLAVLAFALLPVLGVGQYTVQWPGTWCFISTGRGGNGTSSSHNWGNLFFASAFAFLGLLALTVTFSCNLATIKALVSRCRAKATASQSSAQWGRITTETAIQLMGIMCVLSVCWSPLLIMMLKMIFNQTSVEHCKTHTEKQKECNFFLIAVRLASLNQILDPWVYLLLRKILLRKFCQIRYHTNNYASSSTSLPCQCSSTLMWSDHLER
pIC50: −log10 of the molar value.
assay-endpoint: pIC50

Exercise: For the compound CCCCC[C@H](O)/C=C/[C@H]1[C@H](O)CC(=O)[C@@H]1CCCCCCC(=O)O , what pIC50 is on record?
Key: ~9.00
